Sourced from patent US20040102622A1

# System: human hepatocyte growth factor receptor mRNA
measured.metric: inhibition of human hepatocyte growth factor receptor expression

- substance: "ISIS 155116: 2′-MOE gapmer, phosphorothioate backbone, sequence aaatctttcatgatgattcc (antisense AAATCTTTCATGATGATTCC; all phosphorothioate, sugars by position and methylation of C not given here; 2'-MOE gapmer)"
  measured: "at least 35%"
- substance: "ISIS 209549: 2′-MOE gapmer, phosphorothioate backbone, sequence cctgagcattactatctctt (antisense CCTGAGCATTACTATCTCTT; all phosphorothioate, sugars by position and methylation of C not given here; 2'-MOE gapmer)"
  measured: "at least 35%"

* * *

# Test system: human hepatocyte growth factor receptor mRNA
measured.metric: inhibition of human hepatocyte growth factor receptor expression

- substance: "ISIS 155104: 2′-MOE gapmer, phosphorothioate backbone, sequence atgcaatggatgatctggga (antisense ATGCAATGGATGATCTGGGA; all phosphorothioate, sugars by position and methylation of C not given here; 2'-MOE gapmer)"
  measured: "at least 35%"
- substance: "ISIS 209530: 2′-MOE gapmer, phosphorothioate backbone, sequence ttacaggatccacataggag (antisense TTACAGGATCCACATAGGAG; all phosphorothioate, sugars by position and methylation of C not given here; 2'-MOE gapmer)"
  measured: "at least 35%"
- substance: "ISIS 209536: 2′-MOE gapmer, phosphorothioate backbone, sequence cctcccatactagagaagta (antisense CCTCCCATACTAGAGAAGTA; all phosphorothioate, sugars by position and methylation of C not given here; 2'-MOE gapmer)"
  measured: "at least 35%"
